System: canine cardiac myofibrillar Ca++-dependent Mg++-ATPase
test.method.notes: Measurement of myofibrillar Ca++-dependent Mg++-ATPase activity on canine cardiac myofibrils
Format: biochemical
conditions.used: 30 μM; pH 7.0, 21° C.
Structures can show the parent of a compound that is named as a salt.
assay.readout: pCa (shift of the pCa giving 50% of the maximal control ATPase activity; Ca++ sensitivity)

Reported pCa (shift of the pCa giving 50% of the maximal control ATPase activity; Ca++ sensitivity) for canine cardiac myofibrillar Ca++-dependent Mg++-ATPase, given CC1SC(=O)NN=C1c1ccc2c(c1)C(=NNC(=O)c1ccccn1)C(=O)N2 (stereo not drawn) ?
+0.14 ± 0.03

Reported pCa (shift of the pCa giving 50% of the maximal control ATPase activity; Ca++ sensitivity) for canine cardiac myofibrillar Ca++-dependent Mg++-ATPase, given CC1SC(=O)NN=C1c1ccc2c(c1)C(=NNC1CCCCC1)C(=O)N2 (stereo not drawn) ?
+0.49 ± 0.06

Reported pCa (shift of the pCa giving 50% of the maximal control ATPase activity; Ca++ sensitivity) for canine cardiac myofibrillar Ca++-dependent Mg++-ATPase, given CC1SC(=O)NN=C1c1ccc2c(c1)C(=NNC(=O)c1cccnc1)C(=O)N2 (stereo not drawn) [Example 38, hydrochloride] ?
+1.05 ± 0.06
